- Condition Parameters: 303.15 K; 101 kPa
Please use y whenever viscosity is not below 50 mPa·s, and n whenever it is.

{"columns": ["Query Smiles", "Discrete Label"],
 "data": [
  ["CC(O)C(=O)[O-].CN(C)C(=N)[NH+](C)C", "y"]
]}

Quick check: does "CC(C)Cc1ccccc1" have viscosity greater than or equal to 50 mPa·s? n

Exam item: decide whether the reported viscosity for "CN(c1ccccc1)c1ccccc1" is at least 50 mPa·s. n

Reported viscosity reaches at least 50 mPa·s for "CC=CC(=O)OCC" ? n

###

Below, each entry is listed alongside its reported viscosity.
- Condition Parameters: 313.15 K; 101 kPa
// return numeric value only (unit: mPa·s, not printed)

Check out these entries, answers already filled in.
{"columns": ["Query Smiles", "Readout Unit", "viscosity"],
 "data": [
  ["CC(O)C(=O)[O-].CN(C)C(=N)[NH+](C)C", "mPa·s", 3960],
  ["CC[n+]1ccccc1.O=S(=O)([O-])C(F)(F)F", "mPa·s", 33.78],
  ["CCOS(=O)(=O)[O-].CC[n+]1ccn(C)c1", "mPa·s", 49.45]
]}

Could you share which viscosity value was measured for "CC(C)Cc1ccccc1" ? 0.771

Any idea what its viscosity is? The compound is "CC=CC(=O)OCC" 0.6154
